system: S. pneumoniae D39; format: cell-based, Streptococcus pneumoniae; conditions: maximum variation in viability; 1 h treatment, C + Y, 37°C, Hill fit
Counter-ions that a name gives are not always drawn.
Here the recorded Δlogmax, S. pneumoniae D39 is given for each entry.
recordedMetric: Δlogmax, S. pneumoniae D39

[
  {
    "molecule": "CCCCCCCCCCCCCCCCCCNC(=O)[C@H](CCC(=O)O)NC(=O)[C@H]1CCCN1C(=O)[C@@H](N)CCCN [DICAM 22, Orn- Pro -Glu-NH-C18H37 · HCl]",
    "result": "1.4 ± 0.4 logarithmic units"
  },
  {
    "molecule": "CCCCCCCCCCCCCCCCCCNC(=O)[C@H](CCC(=O)O)NC(=O)[C@H]1CCCN1C(=O)[C@H](CCCN)NC(=O)OCc1ccccc1",
    "result": "1.9 ± 0.1 logarithmic units"
  },
  {
    "molecule": "CCCCCCCCCCCCCCCCCCNC(=O)[C@H](CCC(=O)O)NC(=O)[C@H]1CCCN1C(=O)[C@H](CC(N)=O)NC(=O)OCc1ccccc1",
    "result": "2.05 ± 0.03 logarithmic units"
  },
  {
    "molecule": "CCCCCCCCCCCCCCCCCCNC(=O)[C@H](CCC(=O)O)NC(=O)[C@H]1CCCN1C(=O)[C@H](C)NC(=O)OCc1ccccc1",
    "result": "1.51 ± 0.04 logarithmic units"
  },
  {
    "molecule": "CCCCCCCCCCCCCCCCCCNC(=O)[C@H](CCC(=O)O)NC(=O)[C@H]1CCCN1C(=O)[C@H](C)NC(C)=O",
    "result": "2.2 ± 0.1 logarithmic units"
  }
]
